test: Plasma pharmacokinetics of SB939 in patients, LC–MS/MS, non-compartmental; format: in vivo, human; conditions: human, plasma, oral, 90 mg, Day 3 or 5; dose level 7, 90 mg; read-out: Tmax, mean
measure: Tmax

- CCCCc1nc2cc(/C=C/C(=O)NO)ccc2n1CCN(CC)CC: 1.5 h

---

test: Plasma pharmacokinetics of SB939 in patients, LC–MS/MS, non-compartmental; format: in vivo, human; conditions: human, plasma, oral, 50 mg, Day 1; dose level 5, 50 mg
measure: Cmax (ng/mL)

• CCCCc1nc2cc(/C=C/C(=O)NO)ccc2n1CCN(CC)CC [SB939] = 124

---

assay: Plasma pharmacokinetics of SB939 in patients, LC–MS/MS, non-compartmental; assay type: in vivo, human; settings: human, plasma, oral, 20 mg, Day 1; dose level 3, 20 mg
measure: AUC(0-inf) (ng·h/mL)

* CCCCc1nc2cc(/C=C/C(=O)NO)ccc2n1CCN(CC)CC [SB939] | 244

---

test: Plasma pharmacokinetics of SB939 in patients, LC–MS/MS, non-compartmental; type: in vivo, human; conditions: human, plasma, oral, 10 mg, Day 1; dose level 2, 10 mg
measure: AUC(0-inf) (ng·h/mL)

- CCCCc1nc2cc(/C=C/C(=O)NO)ccc2n1CCN(CC)CC [SB939]: 137

---

experiment: Plasma pharmacokinetics of SB939 in patients, LC–MS/MS, non-compartmental; type: in vivo, human; conditions: human, plasma, oral, 70 mg, Day 3 or 5; dose level 6, 70 mg
measure: Cmax (ng/mL)

* CCCCc1nc2cc(/C=C/C(=O)NO)ccc2n1CCN(CC)CC | 160

---

assay: Plasma pharmacokinetics of SB939 in patients, LC–MS/MS, non-compartmental; assay type: in vivo, human; conditions: human, plasma, oral, 10 mg, Day 1; dose level 2, 10 mg
measure: Cmax (ng/mL)

* CCCCc1nc2cc(/C=C/C(=O)NO)ccc2n1CCN(CC)CC | 19.5

---

assay: Plasma pharmacokinetics of SB939 in patients, LC–MS/MS, non-compartmental; format: in vivo, human; settings: human, plasma, oral, 10 mg, Day 1; dose level 2, 10 mg; read-out: T1/2, mean (converted)
measure: half-life (h)

• CCCCc1nc2cc(/C=C/C(=O)NO)ccc2n1CCN(CC)CC = 8.6

---

assay: Plasma pharmacokinetics of SB939 in patients, LC–MS/MS, non-compartmental; assay type: in vivo, human; settings: human, plasma, oral, 70 mg, Day 1; dose level 6, 70 mg; read-out: Tmax, mean
measure: Tmax (h)

* CCCCc1nc2cc(/C=C/C(=O)NO)ccc2n1CCN(CC)CC [SB939] | 1.6

---

assay: Plasma pharmacokinetics of SB939 in patients, LC–MS/MS, non-compartmental; type: in vivo, human; conditions: human, plasma, oral, 10 mg, Day 3 or 5; dose level 1, 10 mg, 3 days every 2 weeks; read-out: T1/2, mean (converted)
measure: half-life

* CCCCc1nc2cc(/C=C/C(=O)NO)ccc2n1CCN(CC)CC | 8.3 h

---

experiment: Plasma pharmacokinetics of SB939 in patients, LC–MS/MS, non-compartmental; assay type: in vivo, human; details: human, plasma, oral, 10 mg, Day 1; dose level 1, 10 mg, 3 days every 2 weeks
measure: Cmax (ng/mL)

* CCCCc1nc2cc(/C=C/C(=O)NO)ccc2n1CCN(CC)CC | 14.6

---

assay: Plasma pharmacokinetics of SB939 in patients, LC–MS/MS, non-compartmental; format: in vivo, human; details: human, plasma, oral, 20 mg, Day 1; dose level 3, 20 mg
measure: Cmax (ng/mL)

• CCCCc1nc2cc(/C=C/C(=O)NO)ccc2n1CCN(CC)CC [SB939] = 45.9

---

assay: Plasma pharmacokinetics of SB939 in patients, LC–MS/MS, non-compartmental; format: in vivo, human; settings: human, plasma, oral, 30 mg, Day 3 or 5; dose level 4, 30 mg
measure: Cmax (ng/mL)

* CCCCc1nc2cc(/C=C/C(=O)NO)ccc2n1CCN(CC)CC | 74.3

---

experiment: Plasma pharmacokinetics of SB939 in patients, LC–MS/MS, non-compartmental; assay type: in vivo, human; conditions: human, plasma, oral, 50 mg, Day 1; dose level 5, 50 mg
measure: AUC(0-inf) (µg·h/mL)

* CCCCc1nc2cc(/C=C/C(=O)NO)ccc2n1CCN(CC)CC | 0.661

---

experiment: Plasma pharmacokinetics of SB939 in patients, LC–MS/MS, non-compartmental; format: in vivo, human; details: human, plasma, oral, 30 mg, Day 3 or 5; dose level 4, 30 mg
measure: AUC(0-inf) (ng·h/mL)

* CCCCc1nc2cc(/C=C/C(=O)NO)ccc2n1CCN(CC)CC | 544

---

assay: Plasma pharmacokinetics of SB939 in patients, LC–MS/MS, non-compartmental; assay type: in vivo, human; settings: human, plasma, oral, 60 mg, Day 3 or 5; dose level 5.5, 60 mg
measure: Cmax (ng/mL)

- CCCCc1nc2cc(/C=C/C(=O)NO)ccc2n1CCN(CC)CC [SB939]: 262

---

assay: Plasma pharmacokinetics of SB939 in patients, LC–MS/MS, non-compartmental; format: in vivo, human; conditions: human, plasma, oral, 60 mg, Day 3 or 5; dose level 5.5, 60 mg; read-out: Tmax, mean
measure: Tmax (h)

• CCCCc1nc2cc(/C=C/C(=O)NO)ccc2n1CCN(CC)CC = 1.3

---

assay: Plasma pharmacokinetics of SB939 in patients, LC–MS/MS, non-compartmental; type: in vivo, human; conditions: human, plasma, oral, 20 mg, Day 3 or 5; dose level 3, 20 mg
measure: AUC(0-inf) (ng·h/mL)

* CCCCc1nc2cc(/C=C/C(=O)NO)ccc2n1CCN(CC)CC | 424

---

assay: Plasma pharmacokinetics of SB939 in patients, LC–MS/MS, non-compartmental; format: in vivo, human; details: human, plasma, oral, 60 mg, Day 1; dose level 5.5, 60 mg; read-out: Tmax, mean
measure: Tmax

• CCCCc1nc2cc(/C=C/C(=O)NO)ccc2n1CCN(CC)CC [SB939] = 1.2 h

---

assay: Plasma pharmacokinetics of SB939 in patients, LC–MS/MS, non-compartmental; assay type: in vivo, human; settings: human, plasma, po, 10 to 90 mg oral; read-out: Tmax, range over dose levels
measure: Tmax

* CCCCc1nc2cc(/C=C/C(=O)NO)ccc2n1CCN(CC)CC [SB939] | 1 to 2.5 h

---

experiment: Plasma pharmacokinetics of SB939 in patients, LC–MS/MS, non-compartmental; assay type: in vivo, human; settings: human, plasma, oral, 70 mg, Day 3 or 5; dose level 6, 70 mg
measure: AUC(0-inf) (ng·h/mL)

* CCCCc1nc2cc(/C=C/C(=O)NO)ccc2n1CCN(CC)CC | 1130

---

assay: Plasma pharmacokinetics of SB939 in patients, LC–MS/MS, non-compartmental; type: in vivo, human; settings: human, plasma, oral, 20 mg, Day 1; dose level 3, 20 mg; read-out: Tmax, mean
measure: Tmax

• CCCCc1nc2cc(/C=C/C(=O)NO)ccc2n1CCN(CC)CC = 1.5 h

---

experiment: Plasma pharmacokinetics of SB939 in patients, LC–MS/MS, non-compartmental; assay type: in vivo, human; conditions: human, plasma, oral, 50 mg, Day 1; dose level 5, 50 mg; read-out: T1/2, mean (converted)
measure: half-life (min)

* CCCCc1nc2cc(/C=C/C(=O)NO)ccc2n1CCN(CC)CC | 336

---

experiment: Plasma pharmacokinetics of SB939 in patients, LC–MS/MS, non-compartmental; type: in vivo, human; conditions: human, plasma, oral, 10 mg, Day 3 or 5; dose level 2, 10 mg; read-out: Tmax, mean
measure: Tmax (h)

* CCCCc1nc2cc(/C=C/C(=O)NO)ccc2n1CCN(CC)CC [SB939] | 1.3

---

assay: Plasma pharmacokinetics of SB939 in patients, LC–MS/MS, non-compartmental; type: in vivo, human; conditions: human, plasma, oral, 90 mg, Day 1; dose level 7, 90 mg
measure: Cmax (ng/mL)

• CCCCc1nc2cc(/C=C/C(=O)NO)ccc2n1CCN(CC)CC [SB939] = 229

---

experiment: Plasma pharmacokinetics of SB939 in patients, LC–MS/MS, non-compartmental; assay type: in vivo, human; settings: human, plasma, oral, 70 mg, Day 1; dose level 6, 70 mg
measure: Cmax (ng/mL)

• CCCCc1nc2cc(/C=C/C(=O)NO)ccc2n1CCN(CC)CC = 178

---

experiment: Plasma pharmacokinetics of SB939 in patients, LC–MS/MS, non-compartmental; assay type: in vivo, human; details: human, plasma, oral, 30 mg, Day 1; dose level 4, 30 mg
measure: Cmax (ng/mL)

• CCCCc1nc2cc(/C=C/C(=O)NO)ccc2n1CCN(CC)CC = 55.8

Hello, the source for this data is paper PMC3048208, in case you need it.
